test system: Escherichia coli TOP10; assay: shrunken log2 fold change of peptide-encoding DNA abundance (4.5 h post-induction vs induction); higher = less antimicrobial activity (less host growth inhibition); details: time post-induction: 4.5 h; library: site-saturation at positions 5, 18, 19, 20;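 further: peptides expressed intracellularly from a pBAD plasmid library in pooled LB shake-flask culture, induced with 0.3% L-arabinose, DNA abundance read by NGS, three biological replicates, DESeq2 with apeglm shrinkage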
valueKind: shrunken log2 fold change
Enter the number alone.

Recorded shrunken log2 fold change for RRIRFRPPRLPRPRPRPPLAPRP , please?
0.628

May I ask what shrunken log2 fold change has been recorded for RRIRIRPPRLPRPRPRPYEEPRP ?
-0.828

Name the reported shrunken log2 fold change value associated with the sequence RRIRTRPPRLPRPRPRPNSRPRP
-0.0848

Give its shrunken log2 fold change value. Item: RRIRYRPPRLPRPRPRPGDIPRP
-0.0107

Entry RRIRLRPPRLPRPRPRPCFYPRP has what shrunken log2 fold change?
-0.504

Sample RRIRPRPPRLPRPRPRPMTNPRP — what was its shrunken log2 fold change?
-0.184

I'd like to know its shrunken log2 fold change. The sequence in question is RRIRLRPPRLPRPRPRPEPMPRP
-0.0888

What value of measured shrunken log2 fold change is listed for RRIRRRPPRLPRPRPRPERHPRP ?
0.549
